Biological target: Corticotropin-releasing factor receptor 2/Corticotropin-releasing factor-binding protein (Homo sapiens, UniProt P24387+Q13324)
Sequence (Q13324 whole entry): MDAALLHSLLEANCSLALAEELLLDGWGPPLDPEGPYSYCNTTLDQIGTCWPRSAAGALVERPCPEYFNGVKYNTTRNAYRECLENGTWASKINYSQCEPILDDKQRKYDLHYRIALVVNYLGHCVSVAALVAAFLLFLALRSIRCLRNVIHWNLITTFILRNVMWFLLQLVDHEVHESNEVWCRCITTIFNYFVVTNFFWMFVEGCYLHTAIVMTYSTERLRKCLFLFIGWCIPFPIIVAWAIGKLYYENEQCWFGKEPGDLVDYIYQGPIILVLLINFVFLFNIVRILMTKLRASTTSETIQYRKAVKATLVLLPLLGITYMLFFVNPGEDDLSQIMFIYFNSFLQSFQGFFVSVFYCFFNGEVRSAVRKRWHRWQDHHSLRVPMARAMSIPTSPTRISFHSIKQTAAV
Sequence (P24387 whole entry): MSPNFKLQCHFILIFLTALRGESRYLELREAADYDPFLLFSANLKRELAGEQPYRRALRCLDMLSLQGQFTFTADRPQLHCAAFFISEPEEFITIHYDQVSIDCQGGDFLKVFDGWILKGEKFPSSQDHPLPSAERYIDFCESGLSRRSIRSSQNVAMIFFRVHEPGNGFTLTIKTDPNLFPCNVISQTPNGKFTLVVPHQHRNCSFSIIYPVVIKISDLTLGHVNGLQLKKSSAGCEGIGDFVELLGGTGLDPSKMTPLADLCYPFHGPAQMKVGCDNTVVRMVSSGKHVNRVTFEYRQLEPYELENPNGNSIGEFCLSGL
Assay: Dose Response confirmation of uHTS hits for small molecule antagonists of the CRF-binding protein and CRF-R2 receptor complex.
Assay type: functional
Conditions: read-out: IC50_Mean
Active and inactive are the calls of the source. Cut-off read from the data, not from the text of the source: actives have a measured IC50 and inactives only a lower limit.
Could you please pick one outcome from this set? y = active, n = inactive

For orientation, consider the following solved cases.
INSERT INTO measurements (compound, assigned_label) VALUES
  ('COc1ccc(S(=O)(=O)N2CCCCCC2)cc1C(=O)N(C)Cc1ccc(C(C)(C)C)cc1', 'y'),
  ('O=C(COc1cc(Cl)ccc1Cl)N1CCNC1=O', 'y'),
  ('Fc1ccccc1CSc1nnnn1-c1ccc2c(c1)OCO2', 'y');

stdin: Could you please tell me the result logged for COC(=O)C(OC(=O)c1ccccc1)C(C)Br (stereo not drawn) in this assay?
stdout: n

stdin: Please share the test call associated with CC(C)CCOP(=O)(c1ccc(N(C)C)cc1)C(Nc1ccccc1)c1ccc(N(C)C)cc1 (stereo not drawn) .
stdout: n

stdin: Could you please tell me the result logged for CCC/C(=N/CC(=O)O)C1=C(O)C(C(=O)OC)C(C)(C)CC1=O (stereo not drawn) in this assay?
stdout: n

stdin: // return assay outcome for CCOC(=O)c1c(C)[nH]c(C)c1C(=O)COC(=O)/C=C/c1ccc(Cl)cc1
stdout: n

stdin: I would be grateful if you could indicate the recorded call for CCCN1CCN(C2CCCCC2NS(=O)(=O)c2ccc(Cl)cc2)CC1 (stereo not drawn) .
stdout: n

Measured values drawn from ChEMBL document CHEMBL1201862 for this set.
